target: acetylcholinesterase (AChE) (Rattus norvegicus); construct: from tissue; host or cells: homogenate of rat cortex; assay: biochemical; format: biochemical
Sequence (P37136 32-614): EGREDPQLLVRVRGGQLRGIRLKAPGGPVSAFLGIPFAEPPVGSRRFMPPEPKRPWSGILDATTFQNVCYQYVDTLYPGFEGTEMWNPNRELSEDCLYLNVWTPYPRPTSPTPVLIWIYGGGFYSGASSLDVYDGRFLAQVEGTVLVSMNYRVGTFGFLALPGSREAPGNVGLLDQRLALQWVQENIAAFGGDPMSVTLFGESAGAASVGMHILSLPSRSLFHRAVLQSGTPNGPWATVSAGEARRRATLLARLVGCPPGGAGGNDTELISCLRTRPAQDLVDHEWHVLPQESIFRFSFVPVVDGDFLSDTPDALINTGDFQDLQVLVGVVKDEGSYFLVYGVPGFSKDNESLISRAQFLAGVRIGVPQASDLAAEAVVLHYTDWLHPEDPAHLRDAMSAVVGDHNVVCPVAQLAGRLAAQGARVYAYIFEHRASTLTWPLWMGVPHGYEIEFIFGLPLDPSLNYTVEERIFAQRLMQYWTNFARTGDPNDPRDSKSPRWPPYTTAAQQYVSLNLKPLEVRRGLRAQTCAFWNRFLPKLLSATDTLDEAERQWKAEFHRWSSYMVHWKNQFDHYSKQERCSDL
endpoint label: pIC50
One number for each entry, as −log10 of the molar value.

Give pIC50 for CC=C1C2C=C(C)CC1(N=CC=Cc1ccccc1)c1ccc(=O)[nH]c1C2 (stereo not shown) 6.90

====

molecular target: acetylcholinesterase (AChE) (Rattus norvegicus, UniProt P37136); construct: from tissue; host or cells: rat red cell membrane; assay: biochemical; type: biochemical; conditions: read-out: concentration for inhibition of 50% of enzyme activity (IC50) acetylcholinesterase (AChE); Table 1; AChE taken from rat's red cell membrane
Sequence (P37136 other isoform, or with tags, fused parts or gaps): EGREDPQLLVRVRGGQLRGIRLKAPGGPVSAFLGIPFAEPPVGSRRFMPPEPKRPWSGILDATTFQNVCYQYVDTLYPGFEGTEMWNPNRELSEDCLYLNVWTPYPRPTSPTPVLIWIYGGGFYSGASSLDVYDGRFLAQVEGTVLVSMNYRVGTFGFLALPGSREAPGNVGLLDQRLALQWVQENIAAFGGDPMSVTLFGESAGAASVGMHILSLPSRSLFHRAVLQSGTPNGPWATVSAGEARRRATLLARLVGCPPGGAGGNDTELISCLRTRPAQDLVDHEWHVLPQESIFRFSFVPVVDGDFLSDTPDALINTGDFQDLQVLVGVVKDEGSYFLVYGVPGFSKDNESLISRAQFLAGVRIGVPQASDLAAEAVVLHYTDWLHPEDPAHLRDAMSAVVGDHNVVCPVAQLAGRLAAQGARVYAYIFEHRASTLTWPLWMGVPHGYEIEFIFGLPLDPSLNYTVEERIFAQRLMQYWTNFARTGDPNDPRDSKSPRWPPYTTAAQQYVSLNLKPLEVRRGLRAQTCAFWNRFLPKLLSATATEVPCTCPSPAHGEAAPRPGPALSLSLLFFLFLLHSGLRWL
endpoint label: IC50

Quote IC50 reported for CC=C1C2C=C(C)CC1(NC(=O)C1=CN(C)CC=C1)c1ccc(=O)[nH]c1C2 (stereo not shown) please. > 12.3 µM

====

biological target: AChE (Rattus norvegicus, UniProt P37136); construct: 0.1-0.2 ml of enzyme solution (red cell membrane or serum of rat) was added; from tissue; host or cells: rat tissue; test: biochemical; details: Table 6; 1 μM
Sequence (P37136 32-614): as the sequence (P37136 32-614) above
I would appreciate it if you labelled entries true (1) when inhibition at 1 µM is 80% or higher, otherwise false (0).

Examples with answers:
Please indicate if the recorded inhibition at 1 µM for CC=C1C2C=C(C)CC1(N=Cc1ccc(OC)c(OC)c1O)c1ccc(=O)[nH]c1C2 (centres unmarked) meets or exceeds 80%. false (0)

Evaluate CC=C1C2C=C(C)CC1(N=Cc1ccccc1O)c1ccc(=O)[nH]c1C2 (centres unmarked) : inhibition at 1 µM at minimum 80%? true (1)

Could you verify whether the entry CC=C1C2C=C(C)CC1(N=CC=Cc1ccccc1)c1ccc(=O)[nH]c1C2 (centres unmarked) shows inhibition at 1 µM of no less than 80%? true (1)

Identify whether the reported inhibition at 1 µM of the following compound is 80% or greater: CC=C1C2C=C(C)CC1(N=Cc1ccc(OC)c(O)c1)c1ccc(=O)[nH]c1C2 (centres unmarked) true (1)

Determine whether measured inhibition at 1 µM meets or exceeds 80% for CC=C1C2C=C(C)CC1(N=Cc1cccnc1)c1ccc(=O)[nH]c1C2 (centres unmarked) true (1)

Pending compound:
Check this compound for inhibition at 1 µM at or above 80%: CC=C1C2C=C(C)CC1(N=Cc1ccc(O)c(O)c1O)c1ccc(=O)[nH]c1C2 (centres unmarked) false (0)
